target: adenosine A1 receptor (Rattus norvegicus, UniProt P25099); construct: brain minus cerebellum and brainstem from male Long Evans rats (150-200 g) was homogenized; from tissue; host or cells: rat whole brain minus cerebellum and brainstem, membrane homogenate; experiment: Adenosine Receptor Binding - A1 Receptor Affinity (RBA1), [3H]-CHA displacement; conditions: 1.0 nM [3H]-CHA, rat whole brain membranes, one hour at 25°C; read-out: Receptor Binding RBA—1
Sequence (P25099 whole entry): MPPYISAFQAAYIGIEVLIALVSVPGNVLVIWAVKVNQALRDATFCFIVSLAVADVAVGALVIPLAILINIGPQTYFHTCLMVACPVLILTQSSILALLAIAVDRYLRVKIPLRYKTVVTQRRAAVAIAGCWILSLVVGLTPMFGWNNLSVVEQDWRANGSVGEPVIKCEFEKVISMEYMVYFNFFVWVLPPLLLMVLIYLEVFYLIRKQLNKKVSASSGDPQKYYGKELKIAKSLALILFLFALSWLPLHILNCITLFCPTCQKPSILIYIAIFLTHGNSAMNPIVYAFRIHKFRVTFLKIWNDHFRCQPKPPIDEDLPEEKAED
pIC50: −log10 of the molar value.
Quick reference: pIC50 of the listed items.

{"columns": ["COMPOUND", "TARGET_SYSTEM", "pIC50"],
 "data": [
  ["C[C@H]1O[C@@H](n2cnc3c(NCc4cccc5ccccc45)ncnc32)[C@H](O)[C@@H]1O [Example 20, N^6-α-Naphthylmethyl-5' -deoxyadenosine]", "adenosine A1 receptor (Rattus norvegicus, UniProt P25099)", 6.00],
  ["C[C@H](Cc1ccccc1)Nc1ncnc2c1ncn2[C@@H]1O[C@H](CCl)[C@@H](O)[C@H]1O [Example 15]", "adenosine A1 receptor (Rattus norvegicus, UniProt P25099)", 8.52],
  ["C[C@H]1O[C@@H](n2cnc3c(NC4CCCc5ccccc54)ncnc32)[C@H](O)[C@@H]1O (stereo partly shown) [Example 19, N^6-1-Tetralinyl-5' -deoxyadenosine]", "adenosine A1 receptor (Rattus norvegicus, UniProt P25099)", 5.86],
  ["C[C@H](Cc1ccccc1)Nc1ncnc2c1ncn2[C@@H]1O[C@H](C)[C@@H](O)[C@H]1O [Example 3]", "adenosine A1 receptor (Rattus norvegicus, UniProt P25099)", 7.40],
  ["O[C@@H]1[C@H](O)[C@@H](CCl)O[C@H]1n1cnc2c(NCC(c3ccccc3)c3ccccc3)ncnc21 [Example 13]", "adenosine A1 receptor (Rattus norvegicus, UniProt P25099)", 7.28],
  ["C[C@@H](Cc1ccccc1)Nc1ncnc2c1ncn2[C@@H]1O[C@H](C)[C@@H](O)[C@H]1O [Example 4]", "adenosine A1 receptor (Rattus norvegicus, UniProt P25099)", 6.25],
  ["O[C@@H]1[C@H](O)[C@@H](CCl)O[C@H]1n1cnc2c(NC3CCCC3)ncnc21 [Example 18]", "adenosine A1 receptor (Rattus norvegicus, UniProt P25099)", 8.92]
]}
